# study_system: Platelet-derived growth factor receptor alpha (Homo sapiens)
# experimental_setup: at 1 µM
quantity: residual activity (%)

                                     smiles  unit_name  value_reported
0  c1ccc(-c2cnc(Nc3ccc(OCCN4CCCC4)cc3)s2)cc1          %               7
1      COc1ccc(-c2cnc3c(-c4ccsc4)cnn3c2)cc1          %              99
2  CCOC(=O)c1c(C)[nH]c(/C=C2\C(=O)Nc3ccccc32)c1C          %              43
3       CCCCc1c(-c2ccc(OC)cc2)[nH]c2nccnc12          %             105
4    O=C1NC(=O)c2c1c1c3ccccc3[nH]c1n1cncc21          %              96
5  Oc1cccc(-c2nc(N3CCOCC3)c3oc4ncccc4c3n2)c1          %             127
